Data origin: ChEMBL document CHEMBL4699570

Heads up, these compounds all have pIC50 values measured for Histone deacetylase 1 (Homo sapiens, UniProt Q13547).
Remember the convention: pIC50 equals -log10 of concentration in molar.

(Q) What value of pIC50 on Histone deacetylase 1 (Homo sapiens, UniProt Q13547) does COc1cc2c(Oc3ccc(NC(=O)NC4CCCCC4)cc3)ccnc2cc1OCCCCCCC(=O)NO have?
(A) 7.34

(Q) What value of pIC50 on Histone deacetylase 1 (Homo sapiens, UniProt Q13547) does COc1cc2c(Oc3ccc(NC(=O)Nc4ccc(C(F)(F)F)cc4Cl)cc3)ccnc2cc1OCCCCCCC(=O)NO have?
(A) 6.83

(Q) What value of pIC50 on Histone deacetylase 1 (Homo sapiens, UniProt Q13547) does COc1cc2c(Oc3ccc(NC(=O)Nc4ccccc4)cc3)ccnc2cc1OCCCCCCC(=O)NO have?
(A) 7.12

(Q) What value of pIC50 on Histone deacetylase 1 (Homo sapiens, UniProt Q13547) does COc1cc2c(Oc3ccc(NC(=O)Nc4ccccc4F)cc3)ccnc2cc1OCCCCCCC(=O)NO have?
(A) 6.88

---

target: Hepatocyte growth factor receptor (Homo sapiens); details: dose 100.0 nM
Sequence (P08581 whole entry): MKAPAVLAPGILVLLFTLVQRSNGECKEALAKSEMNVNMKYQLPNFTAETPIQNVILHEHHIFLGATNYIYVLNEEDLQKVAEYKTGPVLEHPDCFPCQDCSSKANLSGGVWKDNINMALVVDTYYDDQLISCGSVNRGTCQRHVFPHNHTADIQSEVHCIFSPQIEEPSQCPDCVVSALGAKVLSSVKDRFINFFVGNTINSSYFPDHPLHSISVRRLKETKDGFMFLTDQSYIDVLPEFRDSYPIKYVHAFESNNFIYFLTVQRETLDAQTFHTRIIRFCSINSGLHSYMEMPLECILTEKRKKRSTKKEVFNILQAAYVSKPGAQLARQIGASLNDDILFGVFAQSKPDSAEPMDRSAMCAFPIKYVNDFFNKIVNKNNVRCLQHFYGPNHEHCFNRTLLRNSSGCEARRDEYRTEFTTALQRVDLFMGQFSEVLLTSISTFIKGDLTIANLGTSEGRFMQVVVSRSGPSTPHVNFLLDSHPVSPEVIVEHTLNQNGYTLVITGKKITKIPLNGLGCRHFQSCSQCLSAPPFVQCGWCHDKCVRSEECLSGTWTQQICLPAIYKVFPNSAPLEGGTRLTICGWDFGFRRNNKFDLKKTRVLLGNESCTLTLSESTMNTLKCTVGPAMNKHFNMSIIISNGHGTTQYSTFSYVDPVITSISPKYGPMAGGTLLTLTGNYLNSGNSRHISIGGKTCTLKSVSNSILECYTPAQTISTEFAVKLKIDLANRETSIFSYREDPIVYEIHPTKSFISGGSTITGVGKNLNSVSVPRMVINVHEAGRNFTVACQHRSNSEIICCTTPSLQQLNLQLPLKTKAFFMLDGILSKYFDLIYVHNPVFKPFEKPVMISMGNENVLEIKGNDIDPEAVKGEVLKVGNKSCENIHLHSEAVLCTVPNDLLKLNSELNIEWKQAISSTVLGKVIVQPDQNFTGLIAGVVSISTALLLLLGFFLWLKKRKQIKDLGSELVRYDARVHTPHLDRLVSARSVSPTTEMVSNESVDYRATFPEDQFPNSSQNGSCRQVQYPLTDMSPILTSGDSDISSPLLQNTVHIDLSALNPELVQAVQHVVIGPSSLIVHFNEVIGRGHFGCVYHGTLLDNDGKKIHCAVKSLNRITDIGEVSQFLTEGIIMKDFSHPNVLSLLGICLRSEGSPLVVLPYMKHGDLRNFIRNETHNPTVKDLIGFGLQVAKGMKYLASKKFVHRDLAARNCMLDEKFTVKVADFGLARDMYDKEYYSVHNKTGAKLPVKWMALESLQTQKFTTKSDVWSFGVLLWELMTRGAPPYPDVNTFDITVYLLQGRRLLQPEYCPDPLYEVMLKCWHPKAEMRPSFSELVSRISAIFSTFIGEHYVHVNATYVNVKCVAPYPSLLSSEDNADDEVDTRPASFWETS
Description: Inhibition of c-MET (unknown origin) at 100 nM relative to control
READOUT TYPE: inhibition (%)
Response body: numeric value in %, unit text excluded.

COc1cc2c(Oc3ccc(NC(=O)Nc4ccc(Cl)c(C(F)(F)F)c4)cc3)ccnc2cc1OCCCCCCC(=O)NO	94.8
COc1cc2c(Oc3ccc(NC(=O)Nc4ccccc4)cc3)ccnc2cc1OCCCCCCC(=O)NO	48
COc1cc2c(Oc3ccc(NC(=O)Nc4ccc(C(F)(F)F)cc4Cl)cc3)ccnc2cc1OCCCCCCC(=O)NO	93.1

With those in mind, consider the next compound.
(Q) Any idea what inhibition was measured for COc1cc2c(Oc3ccc(NC(=O)Nc4ccccc4Cl)cc3)ccnc2cc1OCCCCCCC(=O)NO ?
(A) 30.4

---

target: Histone deacetylase 1 (Homo sapiens); details: dose 100.0 nM
Description: Inhibition of HDAC1 (unknown origin) at 100 nM relative to control
READOUT TYPE: inhibition (%)
Response body: numeric value in %, unit text excluded.

(Q) Any idea what inhibition was measured for COc1cc2c(Oc3ccc(NC(=O)N/N=C/c4ccc(F)cc4)cc3)ccnc2cc1OCCCCCCC(=O)NO ?
(A) 56.1

(Q) Any idea what inhibition was measured for COc1cc2c(Oc3ccc(NC(=O)Nc4ccc(OC(F)(F)F)cc4)cc3)ccnc2cc1OCCCCCCC(=O)NO ?
(A) 11.7

---

# reported inhibition; entries follow
target: Hepatocyte growth factor receptor (Homo sapiens); settings: dose 100.0 nM
Response body: numeric value in %, unit text excluded.

COc1cc2c(Oc3ccc(NC(=O)N/N=C/c4ccccc4F)cc3)ccnc2cc1OCCCCCCC(=O)NO	81.5

(Q) Any idea what inhibition was measured for COc1cc2c(Oc3ccc(NC(=O)N/N=C/c4ccc(F)cc4)cc3)ccnc2cc1OCCCCCCC(=O)NO ?
(A) 24.2

(Q) Any idea what inhibition was measured for COc1cc2c(Oc3ccc(NC(=O)NNC(=O)c4ccccc4F)cc3)ccnc2cc1OCCCCCCC(=O)NO ?
(A) 81.4

(Q) Any idea what inhibition was measured for COc1cc2c(Oc3ccc(NC(=O)N/N=C/c4ccccc4)cc3)ccnc2cc1OCCCCCCC(=O)NO ?
(A) 75.9

(Q) Any idea what inhibition was measured for COc1cc2c(Oc3ccc(NC(=O)Nc4ccc(OC(F)(F)F)cc4)cc3)ccnc2cc1OCCCCCCC(=O)NO ?
(A) 29.8

(Q) Any idea what inhibition was measured for COc1cc2c(Oc3ccc(NC(=O)NNC(=O)c4ccccc4)cc3)ccnc2cc1OCCCCCCC(=O)NO ?
(A) 38.5

(Q) Any idea what inhibition was measured for COc1cc2c(Oc3ccc(NC(=O)Nc4ccc(C)cc4C)cc3)ccnc2cc1OCCCCCCC(=O)NO ?
(A) 44.7

(Q) Any idea what inhibition was measured for COc1ccccc1NC(=O)Nc1ccc(Oc2ccnc3cc(OCCCCCCC(=O)NO)c(OC)cc23)cc1 ?
(A) 31.9

---

biological target: UniProt:P08581; settings: dose 100.0 nM
READOUT TYPE: inhibition (%)
Response body: numeric value in %, unit text excluded.

COc1cc2c(Oc3ccc(NC(=O)Nc4ccccc4C(F)(F)F)cc3)ccnc2cc1OCCCCCCC(=O)NO	28.6
COc1cc2c(Oc3ccc(NC(=O)NCCc4ccccc4)cc3)ccnc2cc1OCCCCCCC(=O)NO	14.3
COc1cc2c(Oc3ccc(NC(=O)NNC(=O)c4cccc(C)c4)cc3)ccnc2cc1OCCCCCCC(=O)NO	29.9
COc1cc2c(Oc3ccc(NC(=O)Nc4ccccc4F)cc3)ccnc2cc1OCCCCCCC(=O)NO	95.5
COc1cc2c(Oc3ccc(NC(=O)NC4CCCCC4)cc3)ccnc2cc1OCCCCCCC(=O)NO	38

(Q) Any idea what inhibition was measured for COc1cc2c(Oc3ccc(NC(=O)Nc4cccc(C)c4)cc3)ccnc2cc1OCCCCCCC(=O)NO ?
(A) 25.7

---

Heads up, these compounds all have IC50 values measured for Hepatocyte growth factor receptor (Homo sapiens, UniProt P08581).
Record the result as number plus unit.

COc1cc2c(Oc3ccc(NC(=O)Nc4ccccc4F)cc3)ccnc2cc1OCCCCCCC(=O)NO	39.2 nM

With those in mind, consider the next compound.
(Q) What value of IC50 on Hepatocyte growth factor receptor (Homo sapiens, UniProt P08581) does COc1cc2c(Oc3ccc(NC(=O)Nc4ccc(C(F)(F)F)cc4Cl)cc3)ccnc2cc1OCCCCCCC(=O)NO have?
(A) 41.2 nM

---

biological target: Histone deacetylase 1 (Homo sapiens, UniProt Q13547); settings: dose 100.0 nM
Sequence (Q13547 whole entry): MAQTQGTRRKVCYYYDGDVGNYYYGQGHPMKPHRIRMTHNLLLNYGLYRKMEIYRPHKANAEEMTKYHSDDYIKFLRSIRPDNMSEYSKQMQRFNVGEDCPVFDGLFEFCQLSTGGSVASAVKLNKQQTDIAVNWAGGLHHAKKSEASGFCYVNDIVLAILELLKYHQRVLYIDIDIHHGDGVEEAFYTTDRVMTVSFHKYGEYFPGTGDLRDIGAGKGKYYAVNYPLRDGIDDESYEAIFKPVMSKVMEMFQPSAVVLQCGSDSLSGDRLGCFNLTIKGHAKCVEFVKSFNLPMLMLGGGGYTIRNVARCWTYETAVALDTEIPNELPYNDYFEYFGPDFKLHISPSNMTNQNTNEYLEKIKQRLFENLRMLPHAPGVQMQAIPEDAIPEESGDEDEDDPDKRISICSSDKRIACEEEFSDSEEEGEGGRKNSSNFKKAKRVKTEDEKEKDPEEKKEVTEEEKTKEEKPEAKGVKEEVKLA
// map inhibition onto a label; ranges low band: < 30%; middle band: ≥ 30% and < 40%; high band: ≥ 40%

Consider the following illustrative entries.
COc1cc2nccc(Oc3ccc(NC(=O)C4(C(=O)Nc5ccc(F)cc5)CC4)cc3)c2cc1OC [CABOZANTINIB]	low band
COc1cc2c(Oc3ccc(NC(=O)NNC(=O)c4ccccc4F)cc3)ccnc2cc1OCCCCCCC(=O)NO	low band
COc1cc2c(Oc3ccc(NC(=O)Nc4ccccc4C(F)(F)F)cc3)ccnc2cc1OCCCCCCC(=O)NO	high band
COc1cc2c(Oc3ccc(NC(=O)C4(C(=O)Nc5ccc(F)cc5)CC4)cc3F)ccnc2cc1OCCCN1CCOCC1 [FORETINIB]	middle band
COc1cc2c(Oc3ccc(NC(=O)NNC(=O)c4ccccc4)cc3)ccnc2cc1OCCCCCCC(=O)NO	middle band
COc1cc2c(Oc3ccc(NC(=O)Nc4cccc(C)c4)cc3)ccnc2cc1OCCCCCCC(=O)NO	high band
COc1cc2c(Oc3ccc(NC(=O)Nc4ccccc4Cl)cc3)ccnc2cc1OCCCCCCC(=O)NO	high band
COc1cc2c(Oc3ccc(NC(=O)NC4CCCCC4)cc3)ccnc2cc1OCCCCCCC(=O)NO	low band

(Q) Record COc1cc2c(Oc3ccc(NC(=O)Nc4ccc(C)cc4C)cc3)ccnc2cc1OCCCCCCC(=O)NO — which class?
(A) low band

(Q) Record COc1cc2c(Oc3ccc(NC(=O)Nc4ccccc4)cc3)ccnc2cc1OCCCCCCC(=O)NO — which class?
(A) low band

(Q) Record COc1cc2c(Oc3ccc(NC(=O)NCCc4ccccc4)cc3)ccnc2cc1OCCCCCCC(=O)NO — which class?
(A) high band

(Q) Record COc1cc2c(Oc3ccc(NC(=O)Nc4ccccc4F)cc3)ccnc2cc1OCCCCCCC(=O)NO — which class?
(A) middle band

---

# reported inhibition; entries follow
target: Histone deacetylase 1 (Homo sapiens, UniProt Q13547); conditions: dose 100.0 nM
Response body: numeric value in %, unit text excluded.

COc1cc2c(Oc3ccc(NC(=O)Nc4ccc(Cl)c(C(F)(F)F)c4)cc3)ccnc2cc1OCCCCCCC(=O)NO	40.9
COc1cc2c(Oc3ccc(NC(=O)NNC(=O)c4cccc(C)c4)cc3)ccnc2cc1OCCCCCCC(=O)NO	67.6
COc1cc2c(Oc3ccc(NC(=O)Nc4ccc(C(F)(F)F)cc4Cl)cc3)ccnc2cc1OCCCCCCC(=O)NO	28.1

With those in mind, consider the next molecule.
(Q) Any idea what inhibition was measured for COc1cc2c(Oc3ccc(NC(=O)N/N=C/c4ccccc4F)cc3)ccnc2cc1OCCCCCCC(=O)NO ?
(A) 10.4
